- Test system: Kuramochi cells labeled with mApple-H2B
- Assay Procedure: IncuCyte Cell Proliferation Assay
- Format: cell-based
- Condition Context: 72 h
Recorded Metric: IC50

Use the examples below as a reference point.
{"Compound": "CNC(=O)[C@@H](NC(=O)[C@@H]1CN(C(=O)c2cncs2)CC12CN(CC1CCOC1)C2)[C@@H](C)OCC12CCC(CC1)OC2 (stereo partly drawn) [I-345]", "IC50": "> 20 µM"}
{"Compound": "Cc1ccc(CNC(=O)[C@@H]2CN(C(=O)c3cnn(Cc4ccccc4)c3)CC23CN(C(=O)[C@H]2CC2(C)C)C3)cc1 [I-363]", "IC50": "5 to 20 µM"}
{"Compound": "CC1(C)C[C@@H]1C(=O)N1CC2(CN(C(=O)c3cnn(Cc4ccccc4)c3)C[C@H]2C(=O)NCc2ccc(C(F)(F)F)nn2)C1 [I-392]", "IC50": "> 20 µM"}

State the recorded IC50 for every item in the following list.
1. CNC(=O)[C@@H](NC(=O)[C@H]1CN(C(=O)c2cnn(Cc3ccccc3)c2)CC12CN(C(=O)[C@H]1CC1(C)C)C2)[C@@H](C)OCC1CCCC1 [I-110B]
2. C[C@@H](OCC1CCCCC1)[C@@H](COC1CCCCC1)NC(=O)[C@@H]1CN(C(=O)c2cncs2)CC12CN(C(=O)[C@H]1CC1(C)C)C2 [I-308]
3. CO[C@H]1COCC[C@H]1NC(=O)[C@@H]1CN(C(=O)c2cnn(Cc3ccccc3)c2)CC12CN(C(=O)[C@H]1CC1(C)C)C2 [I-134A]

["5 to 20 µM", "0.5 to 5 µM", "> 20 µM"]

---

- System: Kuramochi cells labeled with mApple-H2B
- Assay Procedure: IncuCyte Cell Proliferation Assay
- Type: cell-based
- Condition Context: 72 h
Assign IC50 to each entry below.

Some compounds with known IC50 results, for comparison:
{"Compound": "CNC(=O)[C@@H](NC(=O)[C@@H]1CN(C(=O)c2scnc2Cl)CC12CN(C(=O)[C@H]1CC1(C)C)C2)[C@@H](C)OCC1CCCCC1 [I-157A]", "IC50": "0.5 to 5 µM"}
{"Compound": "C[C@@H](OCC12CCC(CC1)OC2)[C@H](NC(=O)[C@@H]1CN(C(=O)c2cncs2)CC12CN(C(=O)C(C)(C)C1CC1)C2)C(C)(C)O", "IC50": "> 20 µM"}
{"Compound": "Cc1cc(C(=O)N2CC(C(=O)N[C@H](C(=O)N3CCCCC3)[C@@H](C)OCC3CCCCC3)C3(C2)CN(C(=O)[C@H]2CC2(C)C)C3)sn1 (stereo partly drawn)", "IC50": "≤ 0.5 µM"}

Give IC50 for each of the items listed below.
1. C[C@@H](OCC12CCC(CC1)OC2)[C@H](NC(=O)[C@@H]1CN(C(=O)c2sc(Cl)nc2Cl)CC12CN(C(=O)C(C)(C)C1CC1)C2)C(C)(C)O
2. C[C@@H](OCC1CCCCC1)[C@H](NC(=O)[C@@H]1CN(C(=O)c2cnn(Cc3ccccc3)c2)CC12CN(C(=O)[C@H]1CC1(C)C)C2)C(=O)NCCC(=O)OC(C)(C)C
3. C[C@@H](OCC1CCC(F)(F)CC1)[C@H](NC(=O)[C@@H]1CN(C(=O)c2cncs2)CC12CN(C(=O)[C@H]1CC1(C)C)C2)C(=O)N1C2CCC1COC2
4. C[C@@H](OCC1CC(F)(F)C1)[C@@H](CO)NC(=O)[C@@H]1CN(C(=O)c2cncs2)CC12CN(C(=O)[C@H]1CC1(C)C)C2
5. CNC(=O)C(NC(=O)[C@@H]1CN(C(=O)c2cn[nH]c2)CC12CN(C(=O)[C@H]1CC1(C)C)C2)C(O)Cc1ccccc1 (stereo partly drawn)
6. CNC(=O)[C@@H](NC(=O)[C@H]1CN(C(=O)c2cnc(COC(C)(C)C)s2)CC12CN(C(=O)[C@H]1CC1(C)C)C2)[C@@H](C)OCC1CCCCC1 [I-175B]

1: > 20 µM; 2: ≤ 0.5 µM; 3: ≤ 0.5 µM; 4: > 20 µM; 5: > 20 µM; 6: 5 to 20 µM

---

- Test system: Kuramochi cells labeled with mApple-H2B
- Assay Procedure: IncuCyte Cell Proliferation Assay
- Assay type: cell-based
- Condition Context: 72 h
Recorded Metric: IC50

// worked examples, IC50 included
{"Compound": "C[C@@H](OCc1ccc(Cl)cc1)[C@@H](CO)NC(=O)[C@@H]1CN(C(=O)c2cncs2)CC12CN(C(=O)[C@H]1CC1(C)C)C2", "Recorded Metric": "IC50", "Reading": "> 20 µM"}
{"Compound": "CNC(=O)C(NC(=O)[C@@H]1CN(C(=O)c2cncs2)CC12CN(C(=O)[C@H]1CC1(C)C)C2)c1cccc(C2CCCCC2)n1 (stereo partly drawn)", "Recorded Metric": "IC50", "Reading": "5 to 20 µM"}

Note: attention shifts to another entry.
Looking up `C[C@@H](OCC1CCCCC1)[C@H](NC(=O)[C@@H]1CN(C(=O)c2cnn(Cc3ccccc3)c2)CC12CN(C(=O)[C@H]1CC1(C)C)C2)C(=O)O` , I found its IC50 recorded as > 20 µM

---

For each of the compounds below, state its pIC50.
- Test system: Kuramochi cells labeled with mApple-H2B
- Assay Procedure: IncuCyte Cell Proliferation Assay
- Assay type: cell-based
- Condition Context: 72 h
pIC50: −log10 of the molar value.

{"Compound": "CNC(=O)C(NC(=O)[C@@H]1CN(C(=O)c2cncs2)CC12CN(C(=O)[C@H]1CC1(C)C)C2)C(O)Cc1ccccc1 (stereo partly drawn) [I-356]", "pIC50": "< 4.70"}
{"Compound": "C[C@@H](OCC1CCC(F)(F)CC1)[C@H](NC(=O)[C@@H]1CN(C(=O)c2cncs2)CC12CN(C(=O)[C@H]1CC1(C)C)C2)C(=O)N1CCC(C(F)(F)F)CC1 [I-398]", "pIC50": "≥ 6.30"}
{"Compound": "COCC1CCCN(C(=O)[C@@H](NC(=O)[C@H]2CN(C(=O)c3cnn(Cc4ccccc4)c3)CC23CN(C(=O)[C@H]2CC2(C)C)C3)[C@@H](C)OCC2CCCCC2)C1 (stereo partly drawn) [I-111]", "pIC50": "5.30 to 6.30"}
{"Compound": "CNC(=O)[C@@H](NC(=O)C1CN(C(=O)c2cnn(Cc3ccccc3)c2)CC12CN(C(=O)[C@H]1CC1(C)C)C2)[C@@H](C)OCc1ccccn1 (stereo partly drawn) [I-257]", "pIC50": "< 4.70"}
{"Compound": "Cc1ccc(CNC(=O)[C@@H]2CN(C(=O)c3cnn(Cc4ccncc4F)c3)CC23CN(C(=O)[C@H]2CC2(C)C)C3)nn1 [I-35]", "pIC50": "< 4.70"}
{"Compound": "C[C@@H](OCC1CCOCC1)[C@@H](COC1CCC(F)(F)CC1)NC(=O)[C@@H]1CN(C(=O)c2cncs2)CC12CN(C(=O)[C@H]1CC1(C)C)C2 [I-312]", "pIC50": "5.30 to 6.30"}
{"Compound": "CNC(=O)[C@@H](NC(=O)[C@H]1CN(C(=O)c2cnn(Cc3ccccc3)c2)CC12CN(C(=O)[C@H]1CC1(C)C)C2)[C@@H](C)OCCC1CCCCC1 [I-125B]", "pIC50": "5.30 to 6.30"}
{"Compound": "COC[C@H]1CCCN(C(=O)[C@H](C)NC(=O)[C@@H]2CN(C(=O)c3cncs3)CC23CN(C(=O)[C@H]2CC2(C)C)C3)C1 [I-325]", "pIC50": "< 4.70"}

For each entry beneath this line, provide reported pIC50.
1. COC[C@H]1CCCN(C(=O)[C@@H](NC(=O)[C@@H]2CN(C(=O)c3cncs3)CC23CN(C(=O)C(C)(C)C2CC2)C3)[C@@H](C)OCC2CCCCC2)C1 [I-389]
2. CC(C)(O)C(NC(=O)[C@@H]1CN(C(=O)c2cncs2)CC12CN(C(=O)C(C)(C)C1CC1)C2)c1cccc(C2CCOCC2)n1 (stereo partly drawn) [I-339]
3. C[C@@H](OCC1CCCCC1)[C@@H](COC(F)(F)F)NC(=O)[C@@H]1CN(C(=O)c2cnn(Cc3ccccc3)c2)CC12CN(C(=O)[C@H]1CC1(C)C)C2 [I-309]
4. C[C@@H](OCC1CCC(F)(F)CC1)[C@H](NC(=O)[C@H]1CN(C(=O)c2cnn(Cc3ccc(F)cc3)c2)CC12CN(C(=O)[C@H]1CC1(C)C)C2)C(=O)N1CCC(F)(F)CC1 [I-164B]

5.30 to 6.30
< 4.70
5.30 to 6.30
5.30 to 6.30

---

- Test system: Kuramochi cells labeled with mApple-H2B
- Assay Procedure: IncuCyte Cell Proliferation Assay
- Type: cell-based
- Condition Context: 72 h
So I've got a bunch of compounds here, and I need their IC50 values.

Please review the following examples before continuing.
{"Compound": "Cc1ccc(C(C)NC(=O)[C@@H]2CN(C(=O)c3cnn(Cc4ccccc4)c3)CC23CN(C(=O)[C@H]2CC2(C)C)C3)nn1 (stereo partly drawn)", "IC50": "0.5 to 5 µM"}
{"Compound": "COC[C@H]1CCCN(C(=O)[C@@H](NC(=O)[C@@H]2CN(C(=O)c3cncs3)CC23CN(C(=O)[C@H]2CC2(C)C)C3)[C@@H](C)OC[C@H]2CC[C@H](N)CC2)C1", "IC50": "> 20 µM"}
{"Compound": "CC(=O)N[C@H]1CCCN(C(=O)[C@@H](NC(=O)[C@@H]2CN(C(=O)c3cncs3)CC23CN(C(=O)[C@H]2CC2(C)C)C3)[C@@H](C)OCC2CCCCC2)C1", "IC50": "0.5 to 5 µM"}
{"Compound": "C[C@@H](OCC1CCCCC1)[C@H](NC(=O)[C@@H]1CN(C(=O)c2cnn(Cc3ccccc3)c2)CC12CN(C(=O)[C@H]1CC1(C)C)C2)C(=O)N1CCC(F)(F)CC1 [I-149A]", "IC50": "≤ 0.5 µM"}
{"Compound": "CNC(=O)[C@@H](NC(=O)[C@@H]1CN(C(=O)Cc2cnn(C)c2)CC12CN(C(=O)[C@H]1CC1(C)C)C2)[C@@H](C)OCc1ccccc1", "IC50": "> 20 µM"}

Each compound below has a reported value. Please supply its IC50.
1. C[C@@H](OCC1CCCCC1)[C@H](NC(=O)[C@@H]1CN(C(=O)c2cnn(Cc3ccccc3)c2)CC12CN(C(=O)[C@H]1CC1(C)C)C2)C(=O)N1CC[C@@H]1CN
2. C[C@@H](OCC1CCCCC1)[C@H](NC(=O)C1CN(C(=O)c2cncs2)CC12CN(C(=O)[C@H]1CC1(C)C)C2)C(=O)N1CCOCC1 (stereo partly drawn)
3. CNC(=O)[C@@H](NC(=O)[C@@H]1CN(C(=O)c2cnn(Cc3ccccc3)c2)CC12CN(C(=O)[C@H]1CC1(C)C)C2)[C@@H](C)OCC(C)C [I-137A]

1: 5 to 20 µM; 2: ≤ 0.5 µM; 3: > 20 µM

Working through the 4 compounds below one at a time, give IC50 for each.
1. C[C@@H](OCC1CCCCC1)[C@H](NC(=O)[C@@H]1CN(C(=O)c2cnn(Cc3ccccc3)c2)CC12CN(C(=O)[C@H]1CC1(C)C)C2)C(=O)N1CCC(c2cc[nH]n2)CC1
2. Cc1ccc(CNC(=O)[C@@H]2CN(C(=O)c3cncs3)CC23CN(C(=O)[C@H]2CC2(C)C)C3)nn1
3. COC[C@H]1CCCN(C(=O)[C@@H](NC(=O)C2CN(C(=O)c3cncs3)CC23CN(C(=O)[C@H]2CC2(C)C)C3)[C@@H](C)OCC2CCCCC2)C1 (stereo partly drawn) [I-196 mixture]
4. CN1CC[C@@H](NC(=O)[C@@H]2CN(C(=O)c3cnn(Cc4ccccc4)c3)CC23CN(C(=O)[C@H]2CC2(C)C)C3)C1=O

1. ≤ 0.5 µM
2. > 20 µM
3. 0.5 to 5 µM
4. > 20 µM
